- System: Plasmodium berghei
- TEST NAME: Screen against P. berghei liver stage (PbLuc), transformed with Luciferase, at 2uM
- Format: functional, HepG2
- COND: tested at 2 uM
In all, about 68,000 compounds went through this assay and about 2,700 (4%) showed an effect of 50% or more. This excerpt belongs to a sample that is enriched for strong results.
# Lookup of reported INHIBITION keyed by entry
ENDPOINT: INHIBITION (%)

- COMPOUND: "CCN(Cc1nnnn1C1CC1)c1cc(C)ccc1C"
  UNIT ANNOTATION: "%"
  NUMERIC RESULT: 55.43
- COMPOUND: "CCn1ccnc1CN1CCN(C(C)C)CC1C (stereo not given)"
  UNIT ANNOTATION: "%"
  NUMERIC RESULT: -49.57
- COMPOUND: "CS(=O)(=O)N1C[C@@H](Oc2ccccn2)[C@H]2OCCC[C@H]21"
  UNIT ANNOTATION: "%"
  NUMERIC RESULT: 50.72
- COMPOUND: "CCOc1cccc2c1OCC(=O)N(c1ccc3c(c1)OCO3)C2"
  UNIT ANNOTATION: "%"
  NUMERIC RESULT: 25.73
- COMPOUND: "Cc1cccc(Nc2cccc(C3CCCN(Cc4ncc[nH]4)C3)n2)n1 (stereo not given)"
  UNIT ANNOTATION: "%"
  NUMERIC RESULT: 7.02
- COMPOUND: "CC1CN(CC(=O)Nc2nncs2)CCN1Cc1nccn1C (stereo not given)"
  UNIT ANNOTATION: "%"
  NUMERIC RESULT: -11.91
- COMPOUND: "CCc1ccc(CN(C)C(=O)c2cnc3c(c2)nc(N)n3CC)nc1"
  UNIT ANNOTATION: "%"
  NUMERIC RESULT: 17.5
- COMPOUND: "O=S(=O)(C1CC1)N1C[C@H](Oc2ccccn2)[C@H]2OCCC[C@H]21"
  UNIT ANNOTATION: "%"
  NUMERIC RESULT: 17.77
- COMPOUND: "CC(NCC(=O)Nc1ccc(N2CCCCCC2)cc1)c1cccs1 (stereo not given)"
  UNIT ANNOTATION: "%"
  NUMERIC RESULT: 23.68
- COMPOUND: "Cc1n[nH]c(C)c1CNC(=O)CSCc1ccccc1Cl"
  UNIT ANNOTATION: "%"
  NUMERIC RESULT: 37.77
- COMPOUND: "Cc1cccc(CN2CCO[C@H]3[C@H](Oc4ccccn4)CC[C@@H]32)n1"
  UNIT ANNOTATION: "%"
  NUMERIC RESULT: 64.44
- COMPOUND: "CCOc1nnc(CN2CCC(c3cc4ccccc4[nH]3)CC2)s1"
  UNIT ANNOTATION: "%"
  NUMERIC RESULT: 38.33
- COMPOUND: "O=C1NCCCc2c1oc1ccc(O)c(CN3CCOCC3)c21"
  UNIT ANNOTATION: "%"
  NUMERIC RESULT: 10.49
- COMPOUND: "CCn1c(N)nc2cc(C(=O)N3CCCOCC3)cnc21"
  UNIT ANNOTATION: "%"
  NUMERIC RESULT: 40.47
- COMPOUND: "CC(C)n1cnc2c1C(C(=O)N1CCCC1)N(S(C)(=O)=O)CC2 (stereo not given)"
  UNIT ANNOTATION: "%"
  NUMERIC RESULT: 29.19
- COMPOUND: "Cc1cc(C)nc(N2CCC(NCCSc3nnnn3C)CC2)n1"
  UNIT ANNOTATION: "%"
  NUMERIC RESULT: -25.72
- COMPOUND: "Cn1ccnc1SCCNC1CCN(c2nc3ccccc3s2)CC1"
  UNIT ANNOTATION: "%"
  NUMERIC RESULT: -11.8
- COMPOUND: "CSc1ccc2c(C)cc(N[C@@H](C)CO)nc2c1"
  UNIT ANNOTATION: "%"
  NUMERIC RESULT: 71.67
- COMPOUND: "Nc1nc2c(c(N3CCCC(OCc4ccccn4)C3)n1)CCNCC2 (stereo not given)"
  UNIT ANNOTATION: "%"
  NUMERIC RESULT: -24.7
- COMPOUND: "CC(C)(C)C(=O)NCCNCc1ccc(Cl)c2cccnc12"
  UNIT ANNOTATION: "%"
  NUMERIC RESULT: -53.16
- COMPOUND: "Cc1ccc(CN2CCCC3(CCN(Cc4ccoc4)CC3)C2)cc1"
  UNIT ANNOTATION: "%"
  NUMERIC RESULT: 78.88
- COMPOUND: "Cc1ccc(CN2CCC3(CC2)CCN(Cc2ccoc2)CC3)cc1"
  UNIT ANNOTATION: "%"
  NUMERIC RESULT: 14.93
- COMPOUND: "COc1ccc2c(c1)C1(CCN(Cc3nccs3)CC1)N(C)CC2"
  UNIT ANNOTATION: "%"
  NUMERIC RESULT: 13.75
- COMPOUND: "CCn1c(C)nnc1CN(C)C1CCN(Cc2nnc(C3CC3)o2)C1 (stereo not given)"
  UNIT ANNOTATION: "%"
  NUMERIC RESULT: 12.75
- COMPOUND: "CC(C)N(Cc1ccccn1)C(=O)CCOc1cccc(F)c1"
  UNIT ANNOTATION: "%"
  NUMERIC RESULT: 5.43
- COMPOUND: "CCn1c(N)nc2cc(C(=O)N(C)Cc3cc(C(C)(C)C)n[nH]3)cnc21"
  UNIT ANNOTATION: "%"
  NUMERIC RESULT: 58.17
- COMPOUND: "CN(Cc1nnnn1C1CC1)c1cccc2ccccc12"
  UNIT ANNOTATION: "%"
  NUMERIC RESULT: 4.86
- COMPOUND: "CCOc1nnc(CN2CCC(c3nc4ccccc4[nH]3)CC2)s1"
  UNIT ANNOTATION: "%"
  NUMERIC RESULT: 28.42
- COMPOUND: "COCCN(CC1CC1)c1nc(CCN)nc2sc(C)c(C)c12"
  UNIT ANNOTATION: "%"
  NUMERIC RESULT: 13.65
- COMPOUND: "CCOc1cccc2c1OCC(=O)N(c1ccc3c(c1)OCCO3)C2"
  UNIT ANNOTATION: "%"
  NUMERIC RESULT: 67.29
- COMPOUND: "CCOc1cccc2c1OCC(=O)N(c1ccc(N(C)C)cc1)C2"
  UNIT ANNOTATION: "%"
  NUMERIC RESULT: 43.74
- COMPOUND: "Cc1cc(NC(=O)CN2CCCC2c2noc(C)n2)n(C)n1 (stereo not given)"
  UNIT ANNOTATION: "%"
  NUMERIC RESULT: 50.76
- COMPOUND: "Cc1ccc(CNC2CC3(CCN(CCO)CC3)c3ccccc32)s1 (stereo not given)"
  UNIT ANNOTATION: "%"
  NUMERIC RESULT: 47.05
- COMPOUND: "COC[C@H](C)Nc1cc(C)c2ccc(SC)cc2n1"
  UNIT ANNOTATION: "%"
  NUMERIC RESULT: 45.56
- COMPOUND: "COc1ccc(CN2CCO[C@H]3[C@H](Oc4ccccn4)CC[C@@H]32)cc1"
  UNIT ANNOTATION: "%"
  NUMERIC RESULT: -0.68
